The origin of these recorded values is patent US20250163119A1.

- test: Pharmacokinetics in Sprague Dawley rats, single subcutaneous or intravenous dose (incl. 10, 30, 100 nmol/kg dose response)
- Type: in vivo
- test settings: rat, plasma; male Sprague Dawley rats; single intravenous dose 187 nmol/kg; Mean; read-out: C0
*1 amine or outer side, *2 acyl side, *3 side chain or, on linkers, in order; H or OH if unused. Side-chain parts run from the residue outwards. [ ]: non-standard residue; d: D form. The star is where a group is joined. C20 diacid = O=C(O)CCCCCCCCCCCCCCCCCCC(=O)*; γGlu = O=C(O)[C@H](CCC(=O)[*:2])N[*:1]; εLys = N[C@@H](CCCCN[*:1])C(=O)[*:2]; αMeL = CC(C)C[C@](C)(N)C(=O)O; AEEA = NCCOCCOCC(=O)O; Aib = CC(C)(N)C(=O)O
test readout: C0 (µM)

1. Ac-GSPSIVTS[αMeL]DVPT[Aib][αMeL]LQKILEQERAEKARQQAK([γGlu-AEEA-εLys-C20 diacid])EAAEILAQV-NH2 [SEQ ID NO: 1] = 5.11
